# Tested on: KB
# experiment description: Cytotoxicity against human KB cells after 72 hrs by MTT assay
# Assay type: functional, cell-based
metric: IC50 (µM)
# number only, unit µM dropped from output

Cc1ccc(S(=O)(=O)c2nc3ccccc3nc2N2CCc3ccccc3C2)cc1 ... 32.1
O=S(=O)(c1ccc(Br)cc1)c1nc2ccccc2nc1N1CCCC(O)C1 (centres undefined) ... 3.72
O=S(=O)(c1ccccc1)c1nc2ccccc2nc1N1CCCC(O)C1 (centres undefined) ... 3.59
O=S(=O)(c1ccc(F)cc1)c1nc2ccccc2nc1N1CCCC1 ... 30.1
Cc1ccc(S(=O)(=O)c2nc3ccccc3nc2N2CCCC(O)C2)cc1 (centres undefined) ... 6.08

Input line: Can you look up IC50 on KB for O=S(=O)(c1ccc(Br)cc1)c1nc2ccccc2nc1N1CCC(O)CC1 ?
Output line: 2.32

Input line: Item O=S(=O)(c1ccc(F)cc1)c1nc2ccccc2nc1N1CCc2ccccc2C1 with KB - IC50?
Output line: 35.4

Input line: // lookup IC50 | system=KB | key= COc1ccc(S(=O)(=O)c2nc3ccccc3nc2N2CCCC(O)C2)cc1 (centres undefined)
Output line: 2.12

Numbers sourced from ChEMBL document CHEMBL2016444.
